Item-by-item account of log10 OH rate constant (cm³/molecule/s)
STUDY CONDITIONS: 25.0 °C
MEASURED METRIC: log10 OH rate constant (cm³/molecule/s)

In [3]: df
Out[3]:
       compound_string                          measured_metric  recorded_value
0         CCCOC(=O)CCC  log10 OH rate constant (cm³/molecule/s)           -11.1
1      FC(F)(F)C(Cl)Cl  log10 OH rate constant (cm³/molecule/s)           -13.4
2        C1=CC2CCC1CC2  log10 OH rate constant (cm³/molecule/s)           -10.4
3           CC(C)(C)CO  log10 OH rate constant (cm³/molecule/s)           -11.3
4           CCCC(=O)OC  log10 OH rate constant (cm³/molecule/s)           -11.5
5          CC(C)OC(C)C  log10 OH rate constant (cm³/molecule/s)             -11
6               COCCCl  log10 OH rate constant (cm³/molecule/s)           -11.3
7               ClCCCl  log10 OH rate constant (cm³/molecule/s)           -12.6
8  Clc1ccccc1-c1ccccc1  log10 OH rate constant (cm³/molecule/s)           -11.5
9      FC(F)OCC(F)(F)F  log10 OH rate constant (cm³/molecule/s)           -13.9

====

STUDY CONDITIONS: 25.0 °C
Reported values of log10 OH rate constant (cm³/molecule/s) for individual entries
MEASURED METRIC: log10 OH rate constant (cm³/molecule/s)

                           compound  recorded_value
0                              C=CC           -10.6
1                         C=C(Cl)Cl             -11
2                     COP(=O)(OC)OC           -11.1
3  C1CC[C@H]2CCC[C@@H]2C1 (racemic)           -10.8
4                  CCCC[N+](=O)[O-]           -11.8
5            Fc1c(F)c(F)c(F)c(F)c1F           -12.8
6                           C/C=C\C           -10.2
7                            C=CC#N           -11.4
8                        ClCC(Cl)Cl           -12.7
9                     COP(=O)(SC)SC             -11

====

STUDY CONDITIONS: 25.0 °C
# log10 OH rate constant (cm³/molecule/s) per entry
MEASURED METRIC: log10 OH rate constant (cm³/molecule/s)

>>> df
     compound_string                          measured_metric  recorded_value
0                 CO  log10 OH rate constant (cm³/molecule/s)             -12
1    CCC[N+](=O)[O-]  log10 OH rate constant (cm³/molecule/s)           -12.4
2     ClCC(Cl)(Cl)Cl  log10 OH rate constant (cm³/molecule/s)           -13.7
3  C=C(C)C(=O)OCCOCC  log10 OH rate constant (cm³/molecule/s)           -10.6
4             CCCCOC  log10 OH rate constant (cm³/molecule/s)           -10.8
5       FC(F)(Cl)CCl  log10 OH rate constant (cm³/molecule/s)           -13.8
6         C=CCC(=C)C  log10 OH rate constant (cm³/molecule/s)           -10.1
7        CCCC(=O)OCC  log10 OH rate constant (cm³/molecule/s)           -11.3
8    COC(=O)C(F)(F)F  log10 OH rate constant (cm³/molecule/s)           -13.3
9        CCCCCOCCCCC  log10 OH rate constant (cm³/molecule/s)           -10.5

FYI, the data here is from the OPERA property sets (Mansouri et al. 2018).
